composite z-score listing for selected compounds.
System: Lefty1
testName: Lefty1 binders on small-molecule microarrays, primary screen, biochemical, small-molecule microarray, 635/667 nm fluorescence (AID 1139)
conditionsUsed: small-molecule microarray binding, fluorescence 635/667; higher = more signal
Lab note: record the figure alone, no unit after it.

Consider O=C(NN=C1C[C@@H](O)[C@@H](O)[C@@H]2[C@@H]3C(=O)N(c4ccc(F)cc4F)C(=O)[C@@H]3CC[C@H]12)OCc1ccccc1 . Its measured composite z-score is 0.331

Reported composite z-score ( CO[C@H]1COC(=O)CC=C[C@@H](C)COC(=O)[C@H]2CCCN2C(=O)CC=C[C@H]1C ) = 1.68

For CON=C(C)CCC(=O)OC[C@H]1O[C@H](C#Cc2ccccc2)C=C[C@@H]1Oc1ccc(C)cc1 the compound record lists composite z-score as 0.569

Notebook: C=CC[C@@H]1C=C[C@H](ON=C2C[C@@H](O)[C@@H](O)[C@@H]3[C@@H]4C(=O)N(CC)C(=O)[C@@H]4CC[C@@H]23)[C@@H](CO)O1 , composite z-score read as 0.158
